Test: Toxicity liver stage against HepG2, at 10uM
Type: cell-based
Parameters: test concentration 10 uM, cell line HepG2-A16-CD81EGFP
Details: human, HepG2-A16-CD81EGFP cells; read-out: INHIBITION

{"Molecule": "c1csc(N2[C@H](Cn3cncn3)C[C@@H]3CNCC[C@@H]32)n1", "cytotoxicity at 10 µM (%)": -142}
{"Molecule": "O=C1N(c2cccnc2)CCC12CCCN(Cc1ccco1)C2 (stereo unspecified)", "cytotoxicity at 10 µM (%)": -5.79}
{"Molecule": "COCC(=O)N1CCN(Cc2csc(-c3ncccn3)n2)CC1", "cytotoxicity at 10 µM (%)": -11.3}
{"Molecule": "CN(C)C(=O)N1CCOCC2(CCN(c3ncccn3)C2)C1 (stereo unspecified)", "cytotoxicity at 10 µM (%)": -9.17}
{"Molecule": "Cc1ccsc1C(Cn1ccnc1-c1ccccc1C(=O)O)N(C)C (stereo unspecified)", "cytotoxicity at 10 µM (%)": -2.86}
{"Molecule": "Cc1noc([C@H]2C[C@@H]3CCN(C(=O)C4CCOCC4)C[C@H]3O2)n1", "cytotoxicity at 10 µM (%)": 7.62}
{"Molecule": "CN1CCC(c2cnc(NCc3nccn3C)cn2)CC1", "cytotoxicity at 10 µM (%)": -5.91}
{"Molecule": "CC(Cc1ccc(Cl)cc1)NC(=O)Nc1cnn(CC(N)=O)c1 (stereo unspecified)", "cytotoxicity at 10 µM (%)": -5.86}
{"Molecule": "COc1ccc(C(C)Nc2ncc(C(N)=O)cc2Cl)cc1OC (stereo unspecified)", "cytotoxicity at 10 µM (%)": 3.54}
{"Molecule": "O=C(CC1CCCO1)N1CCCN(c2cccnn2)CC1 (stereo unspecified)", "cytotoxicity at 10 µM (%)": -7.72}
{"Molecule": "Cn1cc(N2CCC3(CCCN(C(=O)c4ccnn4C)C3)C2=O)cn1 (stereo unspecified)", "cytotoxicity at 10 µM (%)": -1.55}

====

Test: Toxicity liver stage against HepG2, at 10uM
Type: cell-based
Design: test concentration 10 uM, cell line HepG2-A16-CD81EGFP
Details: human, HepG2-A16-CD81EGFP cells; read-out: INHIBITION
Value kind: cytotoxicity at 10 µM (%)

{"Compound": "COc1ccccc1C(C)CC(=O)N1CCCS1(=O)=O (centres undefined)", "Value kind": "cytotoxicity at 10 µM", "Reading": -11.6}
{"Compound": "Oc1nc(C2CCN(Cc3ccccn3)CC2)cc2ccccc12", "Value kind": "cytotoxicity at 10 µM", "Reading": 11.8}
{"Compound": "CN(Cc1ccccc1)CC(C)(C)NC(=O)c1cnns1", "Value kind": "cytotoxicity at 10 µM", "Reading": -3.67}
{"Compound": "O=C(Cc1ccsc1)N1CCC2(CCCN(CC3CCOCC3)C2)C1 (centres undefined)", "Value kind": "cytotoxicity at 10 µM", "Reading": -135}
{"Compound": "CC(C)N(C)[C@@H]1CCN(Cc2nccs2)[C@H]1Cc1ccncc1", "Value kind": "cytotoxicity at 10 µM", "Reading": -2.75}
{"Compound": "CC(=O)N1CCN(CCNS(=O)(=O)c2cc(F)ccc2C)CC1", "Value kind": "cytotoxicity at 10 µM", "Reading": 5.42}
{"Compound": "Cc1cc(F)ccc1-n1cc(O)c(C(=O)NCC[S+](C)[O-])n1 (centres undefined)", "Value kind": "cytotoxicity at 10 µM", "Reading": 9.38}
{"Compound": "CCC(C)S(=O)(=O)N1CCc2nc(C3CCNCC3)ncc2C1 (centres undefined)", "Value kind": "cytotoxicity at 10 µM", "Reading": -10.7}
{"Compound": "Cc1ccc(CNCC2CCN(CCO)CC2)cc1", "Value kind": "cytotoxicity at 10 µM", "Reading": -6.14}
{"Compound": "COc1cccc(CN2CCCCC2CN2CCOCC2)c1F (centres undefined)", "Value kind": "cytotoxicity at 10 µM", "Reading": 2.64}
{"Compound": "COCCN1CCN(CC(=O)NC2(C#N)CCCC2)CC1", "Value kind": "cytotoxicity at 10 µM", "Reading": 3.5}
{"Compound": "CC(C)CNC(=O)CSC1CCc2ccccc2NC1=O (centres undefined)", "Value kind": "cytotoxicity at 10 µM", "Reading": -2.38}
{"Compound": "Cc1noc2nc(C3CCN(Cc4ccccn4)CC3)cc(C(F)F)c12", "Value kind": "cytotoxicity at 10 µM", "Reading": -13}
{"Compound": "COCC(C)NC(=O)N(C)Cc1cc(C)on1 (centres undefined)", "Value kind": "cytotoxicity at 10 µM", "Reading": 6.27}
{"Compound": "COC1CCCN(C2CCN(c3cccc(-c4csc(C)n4)c3)CC2)C1 (centres undefined)", "Value kind": "cytotoxicity at 10 µM", "Reading": 0.929}
{"Compound": "CC(C)c1nc(CN2CCN(C(=O)OC(C)(C)C)C(C)C2)no1 (centres undefined)", "Value kind": "cytotoxicity at 10 µM", "Reading": 1.62}
{"Compound": "Cc1cnc(Nc2cccc(C3CCCN3Cc3cn(C)nc3C)n2)s1 (centres undefined)", "Value kind": "cytotoxicity at 10 µM", "Reading": 13.2}
{"Compound": "CC1CCN(C(=O)C2(Cc3cc(C4CCOC4)no3)CCNCC2)CC1 (centres undefined)", "Value kind": "cytotoxicity at 10 µM", "Reading": -3.04}
{"Compound": "CC(NCc1ccc(C(C)(C)C)cc1)c1ccc(S(C)(=O)=O)cc1 (centres undefined)", "Value kind": "cytotoxicity at 10 µM", "Reading": 14.5}
{"Compound": "Cc1cccc(C2CCCN2Cc2nc(N)nc(N(C)C)n2)c1C (centres undefined)", "Value kind": "cytotoxicity at 10 µM", "Reading": -12.5}
{"Compound": "Cc1nc(N2CCCC2)nc2c1CCN(C(=O)C1CCCCC1)CC2", "Value kind": "cytotoxicity at 10 µM", "Reading": 3.16}
{"Compound": "COc1ccc(Nc2nc(N)c(C(C)=O)s2)cc1OC", "Value kind": "cytotoxicity at 10 µM", "Reading": 1.8}
{"Compound": "CC(C)(C)OC(=O)N1CCCc2ccc(NCc3ccon3)cc21", "Value kind": "cytotoxicity at 10 µM", "Reading": 10.9}
{"Compound": "Cc1ccc(S(=O)(=O)NC2CNC(=O)C2)cc1C (centres undefined)", "Value kind": "cytotoxicity at 10 µM", "Reading": -21.1}
{"Compound": "CCOCCN1CCN(c2ccc(CN(C)C)cn2)CC1", "Value kind": "cytotoxicity at 10 µM", "Reading": -4.11}
{"Compound": "CCN(Cc1nonc1C)C(=O)Cn1nc(C(F)(F)F)cc1C1CC1", "Value kind": "cytotoxicity at 10 µM", "Reading": 1.45}
{"Compound": "CC[C@H]1CN(C(=O)C(C)(C)C)CC[C@H]1CC(=O)O", "Value kind": "cytotoxicity at 10 µM", "Reading": -0.61}
{"Compound": "CC(C)(C)c1noc(CN2CCCCC2Cn2cncn2)n1 (centres undefined)", "Value kind": "cytotoxicity at 10 µM", "Reading": -2.4}
{"Compound": "CN1N=C(C(=O)N2CCCC(CCc3ccccc3F)C2)CCC1=O (centres undefined)", "Value kind": "cytotoxicity at 10 µM", "Reading": -6.67}
{"Compound": "O=C(NCCc1csc(-c2ccncc2)n1)C1CC(=O)N(C2CC2)C1 (centres undefined)", "Value kind": "cytotoxicity at 10 µM", "Reading": -8.44}
{"Compound": "c1ccc2[nH]c(C3CCN(Cc4nnc(C5CC5)o4)CC3)nc2c1", "Value kind": "cytotoxicity at 10 µM", "Reading": 0.152}
{"Compound": "O=C1CCC2(CCCN(c3ncc(Cl)cc3F)C2)CN1CC1CC1 (centres undefined)", "Value kind": "cytotoxicity at 10 µM", "Reading": 5.98}
{"Compound": "CCOc1ccc(OCC(O)CN2CCN(S(C)(=O)=O)CC2)cc1 (centres undefined)", "Value kind": "cytotoxicity at 10 µM", "Reading": -36.8}
{"Compound": "Cc1csc2ncc(-c3ccnc(N4CCCC4)n3)c(=O)n12", "Value kind": "cytotoxicity at 10 µM", "Reading": -13.2}
{"Compound": "CC(=O)N1CC(c2n[nH]c3ncccc23)C1", "Value kind": "cytotoxicity at 10 µM", "Reading": 19.5}
{"Compound": "c1ccc2c(c1)CC(N1CCCC(NCc3ccc4nonc4c3)C1)C2 (centres undefined)", "Value kind": "cytotoxicity at 10 µM", "Reading": 5.6}
{"Compound": "CN1CCc2nc(C3CCCN(C(=O)CC4CCCCC4)C3)ncc2C1 (centres undefined)", "Value kind": "cytotoxicity at 10 µM", "Reading": -8.36}
{"Compound": "CSc1cccc(CN(C)C(=O)c2ccc(C3CCCNC3)cc2)c1 (centres undefined)", "Value kind": "cytotoxicity at 10 µM", "Reading": -3.07}
{"Compound": "Cc1ncsc1CCN(C)Cc1ccc(CO)o1", "Value kind": "cytotoxicity at 10 µM", "Reading": -15.3}
{"Compound": "Cc1cccc2c1cnn2CCCNC(=O)CCCC(=O)O", "Value kind": "cytotoxicity at 10 µM", "Reading": -11.1}
{"Compound": "O=C(NCCc1cccnc1)c1cn(CCN2CCNCC2)nn1", "Value kind": "cytotoxicity at 10 µM", "Reading": -7.82}
{"Compound": "CSC1(CNC(=O)c2cccc(-n3cccn3)c2)CCOCC1", "Value kind": "cytotoxicity at 10 µM", "Reading": -2.44}
{"Compound": "CC(C)NC(=O)CCNC(=O)Nc1cccc(-c2nccn2C)c1", "Value kind": "cytotoxicity at 10 µM", "Reading": -1.39}
{"Compound": "Cc1cn[nH]c1C1COCCN1Cc1c[nH]cn1 (centres undefined)", "Value kind": "cytotoxicity at 10 µM", "Reading": -1.3}
{"Compound": "NC(=O)C(NC(=O)c1ccc(NC2CC2)nc1)c1ccccc1 (centres undefined)", "Value kind": "cytotoxicity at 10 µM", "Reading": 10.8}
{"Compound": "CCN(Cc1cccc(-c2ccncc2)c1)S(C)(=O)=O", "Value kind": "cytotoxicity at 10 µM", "Reading": -14}
{"Compound": "Cc1cnn(CC2CCCN2Cc2nc3ccccc3nc2C)c1 (centres undefined)", "Value kind": "cytotoxicity at 10 µM", "Reading": -1.35}
{"Compound": "CC(=O)N1CCC(N2CCOC[C@H]2c2nc(-c3ccccc3)c[nH]2)CC1", "Value kind": "cytotoxicity at 10 µM", "Reading": 1.74}
{"Compound": "O=C(c1cscn1)N1CCC2(CCN(Cc3nccs3)CC2)C1", "Value kind": "cytotoxicity at 10 µM", "Reading": -69}
